The reported numbers originate from ChEMBL document CHEMBL3507680.

protocol.text: Human HepG2 cell viability assay in 384 well format
Assay type: toxicity, cell-based
Set-up: dose 125 nL, time 70.5 hour; concentration not given beside the values
assay.context: HepG2 cells, read-out: Inhibition
Kindly state cytotoxicity at 70.5 h for each of the entries shown.
One number for each entry, in %.

Below: 4 compounds and their reported cytotoxicity at 70.5 h.
{"compound": "COCCN(Cc1ccc(F)cc1Cl)C(=O)c1cc(C)no1", "u": "%", "test.value": -1.27}
{"compound": "O=C(CNC(=O)Nc1cccc(Cl)c1SC(F)F)NC1CC1", "u": "%", "test.value": 16.9}
{"compound": "Cc1occc1C(=O)N1CCC2(CC1)CN(c1ccccn1)CCO2", "u": "%", "test.value": -5.88}
{"compound": "CCCNC(=O)C(C)Nc1ccc(OCC)cc1 (stereo not drawn) [PROPETAMIDE]", "u": "%", "test.value": -8.27}

Items follow; give cytotoxicity at 70.5 h for each.
1. Cc1ccc(S(=O)(=O)N2CCN(Cc3ccncc3)CC2)c(Cl)c1
2. CC(C)c1noc(CN2CCOCC2C)n1 (stereo not drawn)
3. CS(=O)(=O)c1ccc(OCCNCc2ccc(F)cc2F)cc1
4. CCC(CCNCc1cnc(C2CCC2)s1)N1CCCC1=O (stereo not drawn)

1. -26.7
2. -4.78
3. 0.183
4. 26.8

Items follow; give cytotoxicity at 70.5 h for each.
1. N#Cc1ccc(OC2CCN(C(=O)COCC3CCCO3)CC2)cc1 (stereo not drawn)
2. Cc1nc(COc2cccc(C#N)c2)no1

1. -9.76
2. 2.53

###

protocol.text: Human HepG2 cell viability assay in 384 well format
Type: toxicity, cell-based
Design: dose 125 nL, time 70.5 hour; concentration not given beside the values
assay.context: HepG2 cells, read-out: Inhibition
Binary call on cytotoxicity at 70.5 h: 1 from -10% upward, 0 beneath that.

{"compound": "CC1(C)C(C(=O)NCCC2CN(Cc3c[nH]cn3)CCO2)C1(C)C (stereo unspecified)", "cat": 0}
{"compound": "CC(C)c1nnc2n1CCN(Cc1cccc3c1OCCO3)C2", "cat": 1}

hey, is cytotoxicity at 70.5 h for this one >= -10%? "Cc1cc2c(=O)n(CCSc3cnn[nH]3)cnc2s1"
0

hey, is cytotoxicity at 70.5 h for this one >= -10%? "CCc1ncc2c(n1)CN(Cc1nc(-c3cccnc3)no1)CC2"
1

hey, is cytotoxicity at 70.5 h for this one >= -10%? "O=C1OCCN1CC(=O)N1C[C@H]2CC[C@@H]1CN(C(=O)c1cccnc1)C2"
1

hey, is cytotoxicity at 70.5 h for this one >= -10%? "COCCCNc1c(-c2ccc(C)cc2)c(=O)c1=O"
1

hey, is cytotoxicity at 70.5 h for this one >= -10%? "COCCN1C[C@H]2CN(C(=O)c3ccc4c(c3)OCO4)CCN2C1=O"
1

hey, is cytotoxicity at 70.5 h for this one >= -10%? "CN(Cc1cnn(C)c1)C(=O)CCS(=O)(=O)c1ccc2c(c1)OCCO2"
0

hey, is cytotoxicity at 70.5 h for this one >= -10%? "CN(CCCc1cc(-c2ccccc2)n[nH]1)C(=O)CCCn1cncn1"
1

###

protocol.text: Human HepG2 cell viability assay in 384 well format
Format: toxicity, cell-based
Parameters: dose 125 nL, time 70.5 hour; concentration not given beside the values
assay.context: HepG2 cells, read-out: Inhibition
quantity.kind: cytotoxicity at 70.5 h (%)
Give bare numbers, in %.

Below: 5 compounds and their reported cytotoxicity at 70.5 h.
{"compound": "O=C(c1ncn2c1CNS(=O)(=O)c1ccccc1-2)N1CCCCC1", "test.value": -2.38}
{"compound": "COCCCNC(=O)Cc1cc(-c2ccc(Cl)cc2)on1", "test.value": 3.59}
{"compound": "CNc1nc(C)c(C(=O)NCC(C)(C)N2CCCCC2)s1", "test.value": -0.6}
{"compound": "Cc1cc(C)c(C#N)c(NCCSc2nncn2C)n1", "test.value": -6.87}
{"compound": "CCC(NC(=O)Nc1ccc(OC)c(C)c1)c1noc(C)n1 (configuration not stated)", "test.value": 4.08}

Items follow; give cytotoxicity at 70.5 h for each.
1. O=C1CCC(=O)N1c1nn(Cc2ccccc2)cc1Cl
2. COc1c(CNC2CCCOc3ccccc32)c(C)nn1C (configuration not stated)
3. CCc1noc(C(C)N(C)CC(=O)Nc2ccc(Br)cc2C)n1 (configuration not stated)

1. 20.6
2. -9.23
3. -96.5
